# Target Or Test System: T1, purified β2-chimaerin (UniProt P52757-1 1-468)
# T1 sequence: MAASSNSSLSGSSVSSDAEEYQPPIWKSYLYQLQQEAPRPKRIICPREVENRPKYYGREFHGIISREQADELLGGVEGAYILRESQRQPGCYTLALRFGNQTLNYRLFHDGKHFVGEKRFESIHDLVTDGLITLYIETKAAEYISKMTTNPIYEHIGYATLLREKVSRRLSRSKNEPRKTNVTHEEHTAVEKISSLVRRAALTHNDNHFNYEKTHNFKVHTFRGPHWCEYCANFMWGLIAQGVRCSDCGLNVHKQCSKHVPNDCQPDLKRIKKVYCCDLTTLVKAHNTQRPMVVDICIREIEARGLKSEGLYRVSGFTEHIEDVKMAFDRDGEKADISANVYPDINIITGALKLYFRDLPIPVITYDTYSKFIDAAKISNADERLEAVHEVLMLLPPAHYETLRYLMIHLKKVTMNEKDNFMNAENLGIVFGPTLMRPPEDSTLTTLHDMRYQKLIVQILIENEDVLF
# Protocol Summary: co-sedimentation
Measured Property: pKd
// field semantics: pKd = negative decimal log of concentration (mol/L)

QUERY: Entry Nck1 SH3-3 (purified third SH3 domain of Nck1) (domain or fragment) QVLHVVQALYPFSSSNDEELNFEKGDVMDVIEKPENDPEWWKCRKINGMVGLVPKNYVTVMQN has what pKd?
RESULT: 5.77
